Data origin: paper PMC10397247

- tested-target: T1, 4H918-bH
- T1 chain: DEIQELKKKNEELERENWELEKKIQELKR
- assay-comment: two-hybrid library CCNG1;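 note: natural log of median RNA to DNA barcode read ratio; higher means stronger binding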
Kindly state interaction score for each of the entries shown.
// no unit string in output, number only

**Q:** Endpoint output: interaction score of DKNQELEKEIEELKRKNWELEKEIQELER [4H3185-bH] . Value?
**A:** -1.09

**Q:** // next record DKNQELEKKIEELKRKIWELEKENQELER [4H3427-bH]
**A:** -0.345

**Q:** // next record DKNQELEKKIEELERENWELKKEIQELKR [4H3354-bH]
**A:** 0.89

**Q:** // next record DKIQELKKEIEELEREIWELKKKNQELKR [4H2576-bH]
**A:** -0.721
